assay: Effective half life in patient; type: ADME, organism-based; conditions: human, in vivo; read-out: t1/2eff
readout-type: half-life

Incoming: Which half-life is reported for this molecule? CC(=O)Nc1cccc(-n2c(=O)n(C3CC3)c(=O)c3c(Nc4ccc(I)cc4F)n(C)c(=O)c(C)c32)c1 [TRAMETINIB]
Outgoing: > 40 h
